Readings of pKd for the listed binders
Target: T1, PUF4 RNA-binding domain (Saccharomyces cerevisiae, UniProt P25339 537-888)
T1 sequence: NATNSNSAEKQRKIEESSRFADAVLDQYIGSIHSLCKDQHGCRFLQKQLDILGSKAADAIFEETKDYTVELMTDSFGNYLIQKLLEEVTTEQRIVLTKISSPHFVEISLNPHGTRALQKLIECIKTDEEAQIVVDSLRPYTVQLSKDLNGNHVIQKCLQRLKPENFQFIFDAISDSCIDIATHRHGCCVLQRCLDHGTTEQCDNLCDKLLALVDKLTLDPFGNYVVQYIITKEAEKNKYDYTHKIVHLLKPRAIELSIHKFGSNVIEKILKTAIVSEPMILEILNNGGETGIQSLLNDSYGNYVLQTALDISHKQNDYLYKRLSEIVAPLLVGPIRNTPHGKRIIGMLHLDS
Assay: Mg; RNA-MaP; 20 mM Na-HEPES pH 7.4, 30 mM KOAc, 0.75 mM MgCl2, 0.1% Tween-20, 5% glycerol, 0.1 mg/mL BSA, 2 mM DTT; 25 C; 0.0125-409.6 nM protein
Conditions: tags: N-His6-TEV cleaved; C-SNAP kept, Cy3B-labelled; label: tethered on chip by stalled RNA polymerase
By convention, pKd is the negative base-10 log of a molar concentration.

Ic_S2_P4E.1_K4.1_C4.1_H4.1_A4.1_[T5C]_[T7C]_F4.1_[A9C]_T4.1 (ssRNA) RNA: UUUGAUUAAUAUGAUAUCGUUCUUUCUUGUACACUCUUCUUUCUCGAUAUCAUAUUAAUCUUU
8.28

Continue with the next binder.
Q: Indicate its recorded pKd; the binder in question is ACAAACAUACACUAUACUACAAAC (ssRNA) [Id_ii_S3_P3E.4_K3.3_C3.2_[C-2A]_H3.3_A3.1_F3.1_T3.2_[T9C]_[A10T]]
Ans: 5.97

Data provenance is paper PMC9352680.
